B1: LINE1-full (parent)
chain: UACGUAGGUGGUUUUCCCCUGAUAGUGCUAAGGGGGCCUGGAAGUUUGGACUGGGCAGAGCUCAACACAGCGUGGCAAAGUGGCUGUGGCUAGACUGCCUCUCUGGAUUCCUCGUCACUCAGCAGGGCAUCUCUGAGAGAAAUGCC

# Variants of: B1
# ASSAY_SUMMARY: self-cleavage, relative activity (ratio to wild type); higher = more cleavage; in vitro, sequencing; the parent is a self-cleaving ribozyme
So basically: self-cleavage at 1 or higher? That is class 1. Lower than 1? That is class 0.

Below, 3 variants whose answers are already recorded.
| SEQ_TEXT | LABEL |
| --- | --- |
| UACGUAGGUAGGUUUCCCCUGAUAGUGCUAAGGGGGCCUGGAAGUUUGGACUGGGCAGAGCUCAACACAGCGUGGCAAAGUGGCUGUGGCUAGACUGCCUCUCUGGAUUCCUCGUCACUCAGCAGGGCAUCUCUGAGAGAAAUGCC [G10A U12G] | class 0 |
| UACGUAGGUGGCUUUCCCCUGAUAGUGCUAAGGGGGCCUGGAAGUUUGGACUGGGCAGAGCUCAACACAGCGUGGCAAAGUGGCUGUGGCUAGGCUGCCUCUCUGGAUUCCUCGUCACUCAGCAGGGCAUCUCUGAGAGAAAUGCC [U12C A94G] | class 0 |
| UACGUAGGUGGUUUUCCCCUGAUAGUGCUAAGGGGGCCUGGAAGUUUGGACUGGGCAGAGCUCAACACAGCGUGGCAAAGUGGCUGUGGCUGGACUGCCUCUCUGGAUUCCUCGUCACUCAGCAGGGCAUCUCUGAGAGAAAUGCC [A92G] | class 0 |

(Q) Does UACGUAGGUGGUUUUCCCCUGAUAGUGCUAAGGGGGCCUGGAAGUUUGGACUGGGCAGAGCUCAACACAGCGAGGCAAAGUGGCUGUGGCUAGACUGCCUCUCUGGGUUCCUCGUCACUCAGCAGGGCAUCUCUGAGAGAAAUGCC [U73A A107G] have a reported self-cleavage of at least 1?
(A) class 1

(Q) Does the variant UACGUAGGUGGUUUUCCCCUGAUAGUGCUAAGGGGGCCUGGAAGUUUGGACUGGGCAGAGCUCAACACAGUGUGGCAAAGUGGCUGUGGCUAGACUGCCUCUCUGGAUUCCUCGUCACUCAGCAGGGCAUCCCUGAGAGAAAUGCC [C71U U132C] have recorded self-cleavage that is 1 or more?
(A) class 1
